biological target: Adenosine receptor A2a (Homo sapiens, UniProt P29274, T88E); assay: Binding affinity against T88E human adenosine A2A receptor expressed in CHO cells using [3H]- ZM-241385
Sequence (P29274 whole entry T88E): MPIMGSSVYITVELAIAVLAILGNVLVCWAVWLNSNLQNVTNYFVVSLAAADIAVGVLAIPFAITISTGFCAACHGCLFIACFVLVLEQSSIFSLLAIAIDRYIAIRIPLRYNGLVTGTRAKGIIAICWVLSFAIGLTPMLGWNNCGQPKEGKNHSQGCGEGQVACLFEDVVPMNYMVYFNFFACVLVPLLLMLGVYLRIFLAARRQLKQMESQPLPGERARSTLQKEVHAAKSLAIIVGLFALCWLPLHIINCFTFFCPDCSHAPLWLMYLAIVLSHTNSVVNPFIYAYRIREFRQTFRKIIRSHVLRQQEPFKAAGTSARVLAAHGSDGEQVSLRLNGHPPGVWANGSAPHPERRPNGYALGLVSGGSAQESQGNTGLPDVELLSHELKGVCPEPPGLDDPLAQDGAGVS
Metric: Ki (µM)
Answers are plain numbers, in µM.

Observe how each entry below is paired with its result.
>>> df
                         chemical_structure                               measured_on  reported_value
0  N[C@H]1[C@@H](O)[C@H](n2cnc3c(NCc4cccc(I)c4)ncnc32)O[C@@H]1CO  Adenosine receptor A2a (Homo sapiens, UniProt P29274, T88E)              57
1  NC[C@H]1[C@@H](O)[C@H](n2cnc3c(NCc4cccc(I)c4)ncnc32)O[C@@H]1CO  Adenosine receptor A2a (Homo sapiens, UniProt P29274, T88E)              64

Q. Would you kindly share the measured Ki for "NC[C@H]1O[C@@H](n2cnc3c(N)ncnc32)[C@H](O)[C@@H]1O" ?
A. 492

* * *

molecular target: Adenosine receptor A2a (Homo sapiens, UniProt P29274, H278E); assay: biochemical
Sequence (P29274 whole entry H278E): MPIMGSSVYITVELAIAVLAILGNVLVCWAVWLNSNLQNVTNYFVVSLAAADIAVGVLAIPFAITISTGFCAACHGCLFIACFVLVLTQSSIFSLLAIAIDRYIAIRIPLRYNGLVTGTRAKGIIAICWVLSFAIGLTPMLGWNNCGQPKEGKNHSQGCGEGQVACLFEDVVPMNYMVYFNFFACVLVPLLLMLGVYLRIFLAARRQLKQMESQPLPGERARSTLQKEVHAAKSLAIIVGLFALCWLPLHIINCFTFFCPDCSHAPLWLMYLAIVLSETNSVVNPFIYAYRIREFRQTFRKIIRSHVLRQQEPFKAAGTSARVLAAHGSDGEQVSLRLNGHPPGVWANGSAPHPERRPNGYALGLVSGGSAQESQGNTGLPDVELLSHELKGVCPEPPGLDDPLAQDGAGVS
Kindly supply the reported pKi values for the records listed here.
Give bare numbers, as −log10 of the molar value.

                         chemical_structure  reported_value
0  NC[C@H]1[C@@H](O)[C@H](n2cnc3c(NCc4cccc(I)c4)ncnc32)O[C@@H]1CO            4.25

Now look at this one.
Q. Would you kindly share the measured pKi for "N[C@H]1[C@@H](O)[C@H](n2cnc3c(NCc4cccc(I)c4)ncnc32)O[C@@H]1CO" ?
A. 4.19

* * *

Kindly supply the reported Ki values for the records listed here.
target: Adenosine receptor A2a (Homo sapiens, UniProt P29274, S277E); experiment: biochemical
Numbers only, in µM.

>>> print(df.to_string())
                         chemical_structure  metric  reported_value
0  NC[C@H]1O[C@@H](n2cnc3c(N)ncnc32)[C@H](O)[C@@H]1O      Ki             604

For every item in the list below, what is its measured Ki?
1. NC[C@H]1[C@@H](O)[C@H](n2cnc3c(NCc4cccc(I)c4)ncnc32)O[C@@H]1CO
2. N[C@H]1[C@@H](O)[C@H](n2cnc3c(NCc4cccc(I)c4)ncnc32)O[C@@H]1CO

A.
67
88

* * *

Kindly supply the reported pKi values for the records listed here.
biological target: Adenosine receptor A2a (Homo sapiens, UniProt P29274, Q89D); test: biochemical
Sequence (P29274 whole entry Q89D): as the sequence (P29274 whole entry H278E) above, with Q89D, E278H counted along it
One number for each entry, as −log10 of the molar value.

Observe how each entry below is paired with its result.
>>> df
                         chemical_structure  metric  reported_value
0  NC[C@H]1[C@@H](O)[C@H](n2cnc3c(NCc4cccc(I)c4)ncnc32)O[C@@H]1CO     pKi            4.24
1  N[C@H]1[C@@H](O)[C@H](n2cnc3c(NCc4cccc(I)c4)ncnc32)O[C@@H]1CO     pKi            5.19

Now look at this one.
Q. Would you kindly share the measured pKi for "NC[C@H]1O[C@@H](n2cnc3c(N)ncnc32)[C@H](O)[C@@H]1O" ?
A. 4.28

* * *

Adenosine receptor A2a (Homo sapiens) measurements of Ki, listed per entry.
Give bare numbers, in µM.

>>> print(df.to_string())
                         chemical_structure  metric  reported_value
0  NC[C@H]1O[C@@H](n2cnc3c(N)ncnc32)[C@H](O)[C@@H]1O      Ki           0.534

For every item in the list below, what is its measured Ki?
1. NC[C@H]1[C@@H](O)[C@H](n2cnc3c(NCc4cccc(I)c4)ncnc32)O[C@@H]1CO
2. N[C@H]1[C@@H](O)[C@H](n2cnc3c(NCc4cccc(I)c4)ncnc32)O[C@@H]1CO

A.
[0.079, 0.067]

* * *

molecular target: Adenosine receptor A2a (Homo sapiens, UniProt P29274, H278D); experiment: biochemical
Kindly supply the reported pKi values for the records listed here.
Numbers only, as −log10 of the molar value.

In [3]: df
Out[3]:
                         chemical_structure                               measured_on  reported_value
0  N[C@H]1[C@@H](O)[C@H](n2cnc3c(NCc4cccc(I)c4)ncnc32)O[C@@H]1CO  Adenosine receptor A2a (Homo sapiens, UniProt P29274, H278D)            4.06

Now look at this one.
Q. Would you kindly share the measured pKi for "NC[C@H]1[C@@H](O)[C@H](n2cnc3c(NCc4cccc(I)c4)ncnc32)O[C@@H]1CO" ?
A. 4.23

Source of measurements: ChEMBL document CHEMBL1144939
